In this section, each of the compounds is paired with its reported z-score.
Assay: yeast growth modulation, basal conditions, primary screen, YJM789 clinical isolate, OD600, 24 h (AID 1089);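 note: growth of clinical yeast isolate S. cerevisiae YJM 789 seeded 1000 cells per well; test concentration not given here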
Settings: S. cerevisiae YJM789 growth, higher = more signal, called active from +8 up or from −8 down
REPORTED METRIC: z-score

INSERT INTO assay_data (compound, reported_metric, assay_value) VALUES
  ('CC(C)CNC(=O)[C@@]1(Cc2ccccc2I)c2ccccc2C(=O)N(C2CCCCC2)[C@H]1c1ccc(CO)cc1', 'z-score', -1.32),
  ('C=C[C@H](CO[Si](CC)(CC)CC)N(Cc1ccc(OC(C)=O)c(OC)c1)S(=O)(=O)c1ccc(Br)cc1', 'z-score', -1.77),
  ('COc1cc(NN2C(C(O)c3ccco3)C=CC3C(=O)N(c4ccccc4)C(=O)C32)cc(OC)c1OC (configuration not stated)', 'z-score', 0.602),
  ('C=CCC(OC(C)=O)[C@@H]1[C@@H](N(Cc2ccc(-c3ccccc3)cc2)C(=O)Cc2ccc(OC)cc2)c2cc(OCCCO)ccc2N1C(=O)Cc1ccc2ccccc2c1 (some centres not stated)', 'z-score', -0.74),
  ('COC(=O)[C@@]1(Cc2ccc(OC)cc2)[C@H]2c3cc(C(=O)N(C)C)n(C)c3C[C@H]2CN1C(=O)c1ccccc1', 'z-score', 0.116),
  ('O=C1N[C@@H](Cc2ccccc2)C(=O)N2[C@@H]1C[C@@H](C(=O)O)[C@H]2c1cccc(OCCO)c1', 'z-score', 0.809),
  ('COC(=O)C(CC#Cc1ccc2c(c1)[C@]1(C(=O)N2)[C@H](C(=O)Nc2nc3ccccc3s2)[C@H]2C(=O)O[C@H](c3ccccc3)[C@H](c3ccccc3)N2[C@@H]1c1ccc(O)cc1)C(=O)OC', 'z-score', 0.424);
